System: SK-MEL-2;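 further: growth inhibition of human SK-MEL-2 cells measured with a cell viability assay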
Protocol details: cells
Type: functional, cell-based, Homo sapiens
Condition parameters: Homo sapiens, SK-MEL-2
Description: SANGER: Inhibition of human SK-MEL-2 cell growth in a cell viability assay.
Readout: pIC50
For clarity, pIC50 is expressed as the negative log10 of concentration in mol/L.

Compound	Target system	pIC50
COC(=O)CNC(=O)C(=O)OC	SK-MEL-2	2.71

Moving on to another compound below.
stdin: // query pIC50 value for entry O=C(NOCC1CC1)c1ccc(F)c(F)c1Nc1ccc(I)cc1Cl [CI-1040]
stdout: 5.80

###

Test system: KALS-1
Protocol details: cells
Type: functional, cell-based, Homo sapiens
Condition parameters: Homo sapiens, KALS-1
Description: SANGER: Inhibition of human KALS-1 cell growth in a cell viability assay.
Readout: IC50 (µM)
Numbers only; they are read as µM.

# example entries with known answers
Molecule	Unit tag	IC50
Cc1cc([C@@H](C)Nc2ccccc2C(=O)O)c2nc(N3CCOCC3)cc(=O)n2c1	µM	4.35
CCC1=C[C@@H]2CN(C1)Cc1c([nH]c3ccccc13)[C@@](C(=O)OC)(c1cc3c(cc1OC)N(C)[C@H]1[C@@](O)(C(=O)OC)[C@H](OC(C)=O)[C@]4(CC)C=CCN5CC[C@]31[C@@H]54)C2	µM	0.0039

stdin: Reported IC50 for COc1cc([C@@H]2c3cc4c(cc3[C@@H](O[C@@H]3O[C@@H]5CO[C@@H](C)O[C@H]5[C@H](O)[C@H]3O)[C@H]3COC(=O)[C@H]23)OCO4)cc(OC)c1O [ETOPOSIDE] : what is it?
stdout: 10.3

###

System: LU-134-A
Protocol details: cells
Format: functional, cell-based
Condition parameters: Homo sapiens
Description: SANGER: Inhibition of human LU-134-A cell growth in a cell viability assay.
pIC50: −log10 of the molar value.
Readout: pIC50

Illustrative cases are given below, each with its answer.
Compound	pIC50
COc1cc(F)c(F)c(Nc2ccc(I)cc2F)c1NS(=O)(=O)C1(CC(O)CO)CC1 (centres undefined)	< 5.30
COC(=O)CNC(=O)C(=O)OC	< 2.40
CCC(=O)N1CCN(c2ccc(-n3c(=O)ccc4cnc5ccc(-c6cnc7ccccc7c6)cc5c43)cc2C(F)(F)F)CC1	6.26
Nc1ccn([C@@H]2O[C@H](CO)[C@@H](O)[C@@H]2O)c(=O)n1	< 5.70
COc1ccc(-c2ccc3c(N4CCOC[C@@H]4C)nc(N4CCOC[C@@H]4C)nc3n2)cc1CO	5.99

stdin: Which pIC50 is listed for C=C1C(=O)O[C@@H]2C3O[C@]3(C)CC/C=C(\C)CC[C@@H]12 (some centres undefined) ?
stdout: < 5.30

###

System: OVCAR-5;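 further: growth inhibition of human OVCAR-5 cells, read out with a cell viability assay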
Protocol details: cells
Assay type: functional, cell-based, Homo sapiens
Condition parameters: Homo sapiens, OVCAR-5
Description: SANGER: Inhibition of human OVCAR-5 cell growth in a cell viability assay.
pIC50: −log10 of the molar value.
Readout: pIC50

Previously resolved entries follow.
Molecule	Target system	Readout	Result
CC(=O)O[C@@]12CO[C@@H]1C[C@H](O)[C@@]1(C)C(=O)[C@H](O)C3=C(C)[C@@H](OC(=O)[C@H](O)[C@@H](NC(=O)OC(C)(C)C)c4ccccc4)C[C@@](O)([C@@H](OC(=O)c4ccccc4)[C@H]21)C3(C)C [DOCETAXEL]	OVCAR-5	pIC50	8.70
COc1ccc(C2=N[C@@H](c3ccc(Cl)cc3)[C@@H](c3ccc(Cl)cc3)N2C(=O)N2CCNC(=O)C2)c(OC(C)C)c1 [NUTLIN-3]	OVCAR-5	pIC50	< 5.10
COc1cc([C@@H]2c3cc4c(cc3[C@@H](O[C@@H]3O[C@@H]5CO[C@@H](C)O[C@H]5[C@H](O)[C@H]3O)[C@H]3COC(=O)[C@H]23)OCO4)cc(OC)c1O [ETOPOSIDE]	OVCAR-5	pIC50	5.81
Cc1ccc(Nc2nccc(N(C)c3ccc4c(C)n(C)nc4c3)n2)cc1S(N)(=O)=O [PAZOPANIB]	OVCAR-5	pIC50	< 5.10
O=C(c1cc(Cc2n[nH]c(=O)c3ccccc23)ccc1F)N1CCN(C(=O)C2CC2)CC1 [OLAPARIB]	OVCAR-5	pIC50	< 5.30

stdin: pIC50 lookup needed for C=CCc1cccc(/C=N/NC(=O)CN2CCN(Cc3ccccc3)CC2)c1O [PAC-1] , thanks.
stdout: < 5.59

stdin: Consider next the molecule Cn1cncc1[C@@](N)(c1ccc(Cl)cc1)c1ccc2c(c1)c(-c1cccc(Cl)c1)cc(=O)n2C [TIPIFARNIB] in the same way.
stdout: < 4.80

stdin: Cn1cc(C2=C(c3ccc(Cl)cc3Cl)C(=O)NC2=O)c2ccccc21 [SB-216763] , same question.
stdout: < 5.00

stdin: Now the same for `O=C1N=C(NCc2cccs2)S/C1=C\c1ccc2ncccc2c1`
stdout: < 5.30

stdin: Then this molecule: Nc1ccn([C@@H]2O[C@H](CO)[C@@H](O)[C@@H]2O)c(=O)n1 [CYTARABINE]
stdout: 6.66

###

Tested on: CHP-212
Protocol details: cells
Assay type: functional, cell-based, Homo sapiens
Condition parameters: chp-212
Description: SANGER: Inhibition of human CHP-212 cell growth in a cell viability assay.
Readout: IC50

stdin: Please look up its IC50: `Cc1cc([C@@H](C)Nc2ccccc2C(=O)O)c2nc(N3CCOCC3)cc(=O)n2c1`
stdout: > 5.12 µM

###

System: A2780
Protocol details: cells
Assay type: functional, cell-based, Homo sapiens
Condition parameters: Homo sapiens, A2780
Description: SANGER: Inhibition of human A2780 cell growth in a cell viability assay.
In this section we review reported pIC50 values for a set of molecules.
Lab note: report pIC50 as minus log10 of the concentration in molar units, number only.

Record smiles	pIC50
CC(=O)O[C@@]12CO[C@@H]1C[C@H](O)[C@@]1(C)C(=O)[C@H](O)C3=C(C)[C@@H](OC(=O)[C@H](O)[C@@H](NC(=O)OC(C)(C)C)c4ccccc4)C[C@@](O)([C@@H](OC(=O)c4ccccc4)[C@H]21)C3(C)C	8.47

stdin: Field request: pIC50 | item: `O=C(NOCC1CC1)c1ccc(F)c(F)c1Nc1ccc(I)cc1Cl`
stdout: 6.30

###

Test system: HT
Protocol details: cells
Type: functional, cell-based
Condition parameters: Homo sapiens
Description: SANGER: Inhibition of human HT cell growth in a cell viability assay.
pIC50: −log10 of the molar value.
pIC50 of 5 or higher: y. Under 5: n.

Example results:
Molecule	Target system	Group
COc1cc([C@@H]2c3cc4c(cc3[C@@H](O[C@@H]3O[C@@H]5CO[C@@H](C)O[C@H]5[C@H](O)[C@H]3O)[C@H]3COC(=O)[C@H]23)OCO4)cc(OC)c1O [ETOPOSIDE]	HT	n
CCc1nc(N)nc(N)c1-c1ccc(Cl)cc1	HT	n
O=C(NOCC1CC1)c1ccc(F)c(F)c1Nc1ccc(I)cc1Cl	HT	n
Cc1cc([C@@H](C)Nc2ccccc2C(=O)O)c2nc(N3CCOCC3)cc(=O)n2c1	HT	y
COc1ccc(-c2ccc3c(N4CCOC[C@@H]4C)nc(N4CCOC[C@@H]4C)nc3n2)cc1CO	HT	y

// next entry
stdin: Is it the case that CN(Cc1cnc2nc(N)nc(N)c2n1)c1ccc(C(=O)N[C@@H](CCC(=O)O)C(=O)O)cc1 [METHOTREXATE] has pIC50 reaching or exceeding 5?
stdout: y

###

Tested on: NB7
Protocol details: cells
Type: functional, cell-based
Condition parameters: Homo sapiens
Description: SANGER: Inhibition of human NB7 cell growth in a cell viability assay.
Readout: IC50

> print(dat)
                                   compound   result
1  CC1=C2C[C@H]3[C@@H](CC=C4C[C@@H](O)CC[C@@]43C)[C@@H]2CC[C@]12O[C@@H]1C[C@H](C)CN[C@H]1[C@H]2C  > 16 µM
2  CN1CCN(CCOc2cc(OC3CCOCC3)c3c(Nc4c(Cl)ccc5c4OCO5)ncnc3c2)CC1   > 2 µM
3  O=C(c1cc(Cc2n[nH]c(=O)c3ccccc23)ccc1F)N1CCN(C(=O)C2CC2)CC1   > 5 µM
4  COc1cc(F)c(F)c(Nc2ccc(I)cc2F)c1NS(=O)(=O)C1(CC(O)CO)CC1 (configuration not stated)  4.71 µM

stdin: Look up IC50: `CCc1nc(N)nc(N)c1-c1ccc(Cl)cc1`
stdout: > 20 µM

stdin: Continue with `Cc1cc([C@@H](C)Nc2ccccc2C(=O)O)c2nc(N3CCOCC3)cc(=O)n2c1`
stdout: > 5.12 µM

stdin: `CNC(=O)c1cc(Oc2ccc(NC(=O)Nc3ccc(Cl)c(C(F)(F)F)c3)cc2)ccn1` , same question.
stdout: > 4 µM

###

Test system: KP-N-YS;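 further: cell viability assay measuring inhibition of cell line growth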
Protocol details: cells
Assay type: functional, cell-based
Condition parameters: Homo sapiens
Description: SANGER: Inhibition of human KP-N-YS cell growth in a cell viability assay.
pIC50: −log10 of the molar value.
# key: entry, value: pIC50

Here's what some known entries look like.
> print(dat)
                              record.smiles  result
1  C=CCc1cccc(/C=N/NC(=O)CN2CCN(Cc3ccccc3)CC2)c1O  < 5.59
2                     COC(=O)CNC(=O)C(=O)OC    2.77
3  CCC(=O)N1CCN(c2ccc(-n3c(=O)ccc4cnc5ccc(-c6cnc7ccccc7c6)cc5c43)cc2C(F)(F)F)CC1  < 5.92
4  CC(=O)O[C@@H]1[C@@H](OC(C)=O)[C@@H](O)[C@H](Oc2c(-c3ccc(O)cc3)oc3cc(O)cc(O)c3c2=O)O[C@H]1C  < 5.00
5  C=CCNC1=C2C[C@@H](C)C[C@H](OC)[C@H](O)[C@@H](C)/C=C(\C)[C@H](OC(N)=O)[C@@H](OC)/C=C\C=C(/C)C(=O)NC(=CC1=O)C2=O    6.43

stdin: What value of pIC50 has been recorded for this entry: `Cn1cc(C2=C(c3ccc(Cl)cc3Cl)C(=O)NC2=O)c2ccccc21`
stdout: < 5.00

These measurements were taken from ChEMBL document CHEMBL1201861.
